test system: K562; assay: Cytotoxicity against human K562 cells; format: functional, cell-based
reported-property: IC50 (µM)
Kindly answer with a numeric value in µM, unit omitted.

Return value of IC50 for input COc1cc(/C=C2/C(=N)N3N=C(C(F)(F)F)SC3=NC2=O)ccc1O , no commentary.
44.7

----------
target: Dual specificity protein kinase CLK2 (Homo sapiens)
Sequence (P49760 whole entry): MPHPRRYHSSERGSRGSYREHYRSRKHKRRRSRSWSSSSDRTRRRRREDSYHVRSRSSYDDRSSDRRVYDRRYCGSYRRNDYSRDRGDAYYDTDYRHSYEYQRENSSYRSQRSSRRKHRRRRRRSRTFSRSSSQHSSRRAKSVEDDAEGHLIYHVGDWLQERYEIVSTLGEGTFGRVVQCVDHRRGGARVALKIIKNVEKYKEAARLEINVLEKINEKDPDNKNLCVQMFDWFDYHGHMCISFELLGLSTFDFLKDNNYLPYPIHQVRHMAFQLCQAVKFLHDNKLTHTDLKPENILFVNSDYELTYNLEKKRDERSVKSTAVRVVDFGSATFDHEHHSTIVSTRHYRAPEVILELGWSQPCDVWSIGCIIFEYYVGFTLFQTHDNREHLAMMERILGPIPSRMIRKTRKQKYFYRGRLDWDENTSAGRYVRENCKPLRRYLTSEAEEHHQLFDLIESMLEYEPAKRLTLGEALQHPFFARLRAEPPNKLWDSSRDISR
reported-property: IC50 (nM)
Output spec: scalar in nM, unitless text.

With Dual specificity protein kinase CLK2 (Homo sapiens) as the test system, provide measured IC50 for this molecule: O=C(Oc1cc(O)c2c(c1)OC(c1cc(O)c(O)c(O)c1)CC2)c1cc(O)c(O)c(O)c1 (stereo unspecified)
2700
